molecular target: hAR (human androgen receptor) (Homo sapiens, UniProt P10275); construct: made in house; host or cells: baculovirus/Sf9 insect cells (extract); assay: Competitive binding analysis on hAR extracts with 3H-DHT tracer; details: baculovirus/Sf9 hAR extract, 1 nM 3H-DHT, one hour at 4° C; mean of multiple tests; read-out: AR Binding IC50
Metric name: IC50 (nM)
Only the number, expressed in nM, is required.

# annotated cases, reported IC50 shown
# Compound, Quantity unit, IC50
rows = [
    ("CC(COc1ccc(C#N)c(C(F)(F)F)c1)COc1ccc(C#N)c(C(F)(F)F)c1 [Example 12]", "nM", 233),
    ("C[C@H](Oc1ccc(C#N)c(C(F)(F)F)c1)[C@H](C)Oc1ccc(C#N)c(C(F)(F)F)c1 [Example 1]", "nM", 191),
]

So what IC50 did C=CC(COc1ccc(C#N)c(C(F)(F)F)c1)Oc1ccc(C#N)c(C(F)(F)F)c1 (centres unmarked) [Example 3] get with hAR (human androgen receptor) (Homo sapiens, UniProt P10275)?
115

What would you report for CC(COc1ccc(C#N)c(C(F)(F)F)c1)C(C)Oc1ccc(C#N)c(C(F)(F)F)c1 (centres unmarked) [Example 16] ?
372

Also CC(C)NCC(COc1ccc(C#N)c(C(F)(F)F)c1)Oc1ccc(C#N)c(C(F)(F)F)c1 (centres unmarked) [Example 7] , if possible.
319

Query CCOCC(COc1ccc(C#N)c(C(F)(F)F)c1)Oc1ccc(C#N)c(C(F)(F)F)c1 (centres unmarked) [Example 6] next
124

What do you get for N#Cc1ccc(OCCCCCOc2ccc(C#N)c(C(F)(F)F)c2)cc1C(F)(F)F [Example 24] ?
128

###

Target: hAR (human androgen receptor) (Homo sapiens)
Construct: made in house; host or cells: baculovirus/Sf9 insect cells (extract)
Sequence (P10275 1-920): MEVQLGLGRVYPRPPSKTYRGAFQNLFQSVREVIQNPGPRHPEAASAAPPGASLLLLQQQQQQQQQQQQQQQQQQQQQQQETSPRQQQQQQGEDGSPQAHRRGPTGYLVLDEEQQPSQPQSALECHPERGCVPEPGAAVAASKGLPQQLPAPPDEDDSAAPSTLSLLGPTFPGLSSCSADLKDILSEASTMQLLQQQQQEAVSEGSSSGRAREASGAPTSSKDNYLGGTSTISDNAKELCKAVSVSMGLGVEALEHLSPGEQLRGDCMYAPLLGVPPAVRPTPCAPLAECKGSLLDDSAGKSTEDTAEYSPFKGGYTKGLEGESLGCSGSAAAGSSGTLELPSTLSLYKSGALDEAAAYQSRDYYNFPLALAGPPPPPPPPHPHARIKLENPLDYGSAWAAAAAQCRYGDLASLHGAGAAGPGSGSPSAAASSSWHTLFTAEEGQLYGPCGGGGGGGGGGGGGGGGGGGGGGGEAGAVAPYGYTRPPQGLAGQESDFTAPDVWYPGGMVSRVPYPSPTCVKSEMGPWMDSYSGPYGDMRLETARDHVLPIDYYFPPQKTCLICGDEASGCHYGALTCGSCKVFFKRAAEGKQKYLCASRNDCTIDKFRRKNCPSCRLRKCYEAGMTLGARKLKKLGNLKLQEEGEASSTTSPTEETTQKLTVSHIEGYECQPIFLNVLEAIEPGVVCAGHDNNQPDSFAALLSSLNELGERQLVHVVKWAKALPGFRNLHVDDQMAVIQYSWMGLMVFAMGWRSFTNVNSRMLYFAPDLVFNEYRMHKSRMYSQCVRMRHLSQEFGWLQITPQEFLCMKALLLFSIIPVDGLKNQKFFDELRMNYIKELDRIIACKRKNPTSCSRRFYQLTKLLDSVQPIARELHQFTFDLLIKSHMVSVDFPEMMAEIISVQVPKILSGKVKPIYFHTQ
Experiment: Competitive binding analysis on hAR extracts with 3H-DHT tracer
Mark 1 only when IC50 stays strictly below 40 nM. Values equal to the cut-off are -1.

Determine if N#Cc1ccc(OC(CO)COc2ccccc2)cc1C(F)(F)F (centres unmarked) shows IC50 strictly lower than 40 nM.
-1

Then COC[C@H](COc1ccccc1)Oc1ccc(C#N)c(C(F)(F)F)c1 ?
1

And for C[C@@H](CCOc1ccc(C#N)c(C(F)(F)F)c1)Oc1ccc(C#N)c(C(F)(F)F)c1 ?
-1
